- Tested on: P388 leukemia ip, CD2F1 mice, survival T/C
- experimentalProtocol: NCI In Vivo Anticancer Drug Screen. Data for tumor model P388 Leukemia (intraperitoneal) in CD2F1 (CDF1) mice
- testSettings: endpoint: median survival time; dose: 50.0 mg/kg/injection; schedule: Q04DX003 (ip); vehicle: saline with Tween-80; higher = longer survival
Inconclusive results and toxic doses are left out.
Measured T/C accompanies every entry in the list below.

Respond only with T/C recorded for "Cc1cc(N)c(C)c([N+](=O)[O-])c1" 95 % of control

Respond only with T/C recorded for CN1c2ccccc2C(C)(C)C2Nc3c(C#N)cnc(N)c3C21 (configuration not stated) 96 % of control

Respond only with T/C recorded for "C/C(=C\C=C1\N(C)c2ccccc2C1(C)C)N=C(C#N)C#N" 93 % of control

Next:
Respond only with T/C recorded for CC1SC(=S)N(c2ccccc2)C1=O (configuration not stated) 112 % of control

Respond only with T/C recorded for "c1ccc2c(c1)[nH]c1cc3ccncc3cc12" 94 % of control

Respond only with T/C recorded for C[N+]1(C)CCC(OC(=O)C(O)(c2ccccc2)C2CCCC2)C1 (configuration not stated) 102 % of control

Respond only with T/C recorded for "CCNc1nc(NC(C)C)nc(SC)n1" 91 % of control
